Assay details: yeast display, Sf9 membrane polyspecificity reagent, FACS + sequencing; frameworks hold sequencing errors
Property: polyreactivity (PSR sort gate)

// solved cases for polyreactivity (PSR sort gate) follow
sequence_content=QVQLVESGGGLVQAGGSLRLSCAASGSTFLYYAMGWYRQEPGKERELVAAINWNGGSTYYADSVKGRFTISRDNAKNTVYLQMNSLKPEDTAVYYCNAYGISPYEYYYWGQGTQVTVSS assay_result="low polyreactivity"
sequence_content=QVQLVDTGGGFVQAGGSLRLSCAASGRTFPYYAMGLYRQAPGKERELVAAMTRGVRTQYADSVKGRFTISRDNAKNTVYLQMNSLKPEDTAVYYCAREDWGSYSDMDSWGQGTQVTVSS assay_result="low polyreactivity"
sequence_content=QVQLVESGGGLVQAGGCLRLSCAASGSIFCVYVMGWYRQEPVKERELVAAITRGASTNYADSVKGRFTISRDNAKNTVYLQMNSLKPEDTAVYYCAARQVSVSGHQYGYWGQGTQVTVSS assay_result="low polyreactivity"
sequence_content=QVQLVESGGGLVQAGGSLRLSCAASGRNFRYNAMGWYRQAPGKERELVAAISSGDRTNYADSVKGRFTISRDNAKNTVYLQKKSLKPVDTAVYYCAAPTDSYYEFDYWGQGTQGTVSS assay_result="low polyreactivity"
sequence_content=QVQLVESGGGIVQAGGSLRLSCAASGFTFWVYAMGWSRQAPGNEWQLVAAISARGGSTYYADSVKVRFTISRDNAKNTVYLQMNSLKPVDTEVYYCAAEPSGKRSKFYYWGHGTQVTVSS assay_result="high polyreactivity"
sequence_content=QVQLVESGGGLVQAGGSLRLSCAAAGRSFGRNAMGWYRQAPGKERELVAAISTSSGSTYYADSVKGRFTISRDNAKNTVYLQMNSLKPEDTAGYYCAARDDSYRRYEYGYWGQGTQVTVSS assay_result="high polyreactivity"
sequence_content=QVQLVESGGGLVQAGGSLRLSCAASGFIFGHYAMGWYRQAPGKERELVAGIISSGGSTHYADSVKGRFTISRDNAKNTVYLQMNSLKPEDTAVYFCAADVYRYYAGSRYYYWGQGTQVTVSS assay_result="low polyreactivity"
sequence_content=QVQHVESGGGLVQAGGSLRISCAASGSILDGYAMGWYRQAPGKEREFVAAITWSGGRTYYADSVKGRFTISRDNAMNTVYLQMNSLKPEDTAVYYCIAVTGSWRYDFWGQGSQVTVSS assay_result="high polyreactivity"
sequence_content=QVQLVESGGGLVQAGGSLRLSCAASGRTFYKYGMGWYRQAPGKERELVARINSNGGSTYYADSVKGRFTISRDNAKNTVYLQMNSLKPEDTAVYYCAKRGSYRTKPASEYDSWGQGTQVTVSS assay_result="low polyreactivity"
sequence_content=QVQHVESGGGLDQAGGSLRLSCAASGRTFAPYAMGWYRQAPGKEREFVAGITWSSSSTYADSVKGRFTISRDNAKNTVYVQMNSLKPDDPAVYYCAARHAKGGNRHYYWGQGTQVTVSS assay_result="high polyreactivity"

Q) Look at this sequence and give its reported polyreactivity (PSR sort gate). QDQLVESGGGLVQAGGSLRLSCASSGFTFYVYAMGWYRQAPGKERELVAAISRSGSRTYYADSVKGRVTISRDNAQKTVYLQMNSLKPEDTAVYYCARVRPRGLYFVLHYDYWGQGTQVTVSS
A) high polyreactivity

Values were extracted from the nanobody polyreactivity screen of Harvey et al. (2022).
